# Tested target: Tyrosine-protein kinase CSK (Homo sapiens, UniProt P41240)
# Sequence (P41240 whole entry): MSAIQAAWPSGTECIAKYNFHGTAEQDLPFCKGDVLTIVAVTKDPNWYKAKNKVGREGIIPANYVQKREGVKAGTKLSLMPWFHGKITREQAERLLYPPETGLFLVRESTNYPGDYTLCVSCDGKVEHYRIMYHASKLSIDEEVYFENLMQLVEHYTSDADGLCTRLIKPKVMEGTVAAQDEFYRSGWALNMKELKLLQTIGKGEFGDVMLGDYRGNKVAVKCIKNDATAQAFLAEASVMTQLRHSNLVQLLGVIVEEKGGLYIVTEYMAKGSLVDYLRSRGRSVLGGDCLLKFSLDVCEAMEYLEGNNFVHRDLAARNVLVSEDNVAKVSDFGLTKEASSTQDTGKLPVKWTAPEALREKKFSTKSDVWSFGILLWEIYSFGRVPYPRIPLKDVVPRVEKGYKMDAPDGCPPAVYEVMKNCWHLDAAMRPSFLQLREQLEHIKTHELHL
Endpoint name: pIC50
Give bare numbers, as −log10 of the molar value.

For the molecule `COc1cc2c(Nc3ncc(CC(=O)Nc4cccc(F)c4)s3)ncnc2cc1OCCCN1CCC(CO)CC1` , give its reported pIC50.
4.68

###

# Tested on: SW-620
# Assay overview: Antiproliferative activity against human colorectal carcinoma SW620 cells
Endpoint name: IC50 (nM)
Numbers only, in nM.

For the molecule `COc1cc2c(Nc3ncc(CC(=O)Nc4cccc(F)c4)s3)ncnc2cc1OCCCN1CCC(CO)CC1` , give its measured IC50 value.
2

###

Hi there, I'd appreciate the recorded IC50 for every entry that follows.
# Assay overview: Inhibition of Aurora B-INCENP complex activity
Numbers only, in nM.

Worked set:
COc1cc2c(Nc3ncc(C(=O)Nc4ccc(F)cc4)s3)ncnc2cc1OCCCN1CCOCC1 : 49
COc1cc2c(Nc3ncc(C)s3)ncnc2cc1OCCCN1CCOCC1 : 133
COc1cc2c(Nc3ncc(CNC(=O)c4cccc(F)c4)s3)ncnc2cc1OCCCN1CCC(CO)CC1 : 136

Then this molecule:
Identify measured IC50 associated with `COc1cc2c(Nc3ncc(CC(=O)Nc4cccc(F)c4)o3)ncnc2cc1OCCCN1CCOCC1`
341

###

# Tested target: Mitogen-activated protein kinase 8 (Homo sapiens, UniProt P45983)
# Sequence (P45983 whole entry): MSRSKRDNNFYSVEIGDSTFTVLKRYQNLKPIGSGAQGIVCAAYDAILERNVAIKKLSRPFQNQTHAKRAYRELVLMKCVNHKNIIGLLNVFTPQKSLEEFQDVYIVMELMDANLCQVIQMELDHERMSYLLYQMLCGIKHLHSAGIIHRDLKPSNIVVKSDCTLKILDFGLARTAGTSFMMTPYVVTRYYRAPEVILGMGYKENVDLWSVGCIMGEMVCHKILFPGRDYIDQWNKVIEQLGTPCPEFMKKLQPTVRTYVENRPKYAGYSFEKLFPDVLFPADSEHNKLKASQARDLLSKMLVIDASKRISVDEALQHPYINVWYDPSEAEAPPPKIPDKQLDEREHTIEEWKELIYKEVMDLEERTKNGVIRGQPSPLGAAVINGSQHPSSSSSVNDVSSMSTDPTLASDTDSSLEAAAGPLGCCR
# Assay overview: Inhibitory activity against JNK1alpha
Endpoint name: IC50

For the compound `COc1cc2c(Nc3ncc(CC(=O)Nc4cccc(F)c4)s3)ncnc2cc1OCCCN1CCC(CO)CC1` , give its measured IC50 value.
> 100 µM

###

# Tested target: Mitogen-activated protein kinase 14 (Homo sapiens)
# Sequence (Q16539 whole entry): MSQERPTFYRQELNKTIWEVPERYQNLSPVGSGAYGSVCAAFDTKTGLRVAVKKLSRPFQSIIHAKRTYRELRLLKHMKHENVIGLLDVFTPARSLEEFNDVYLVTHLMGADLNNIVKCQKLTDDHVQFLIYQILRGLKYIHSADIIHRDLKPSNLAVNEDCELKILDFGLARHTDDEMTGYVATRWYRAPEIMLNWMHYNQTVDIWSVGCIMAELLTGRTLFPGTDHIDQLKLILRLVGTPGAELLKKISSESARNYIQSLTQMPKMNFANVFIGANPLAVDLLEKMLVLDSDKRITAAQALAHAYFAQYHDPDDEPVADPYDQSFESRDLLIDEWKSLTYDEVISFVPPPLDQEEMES
# Assay overview: Inhibitory activity against p38-alpha MAPK
pIC50: −log10 of the molar value.
Endpoint name: pIC50

Under Mitogen-activated protein kinase 14 (Homo sapiens), report pIC50 for `COc1cc2c(Nc3ncc(CC(=O)Nc4cccc(F)c4)s3)ncnc2cc1OCCCN1CCC(CO)CC1`
< 4.00

###

# Tested target: Focal adhesion kinase 1 (Homo sapiens, UniProt Q05397)
# Sequence (Q05397 whole entry): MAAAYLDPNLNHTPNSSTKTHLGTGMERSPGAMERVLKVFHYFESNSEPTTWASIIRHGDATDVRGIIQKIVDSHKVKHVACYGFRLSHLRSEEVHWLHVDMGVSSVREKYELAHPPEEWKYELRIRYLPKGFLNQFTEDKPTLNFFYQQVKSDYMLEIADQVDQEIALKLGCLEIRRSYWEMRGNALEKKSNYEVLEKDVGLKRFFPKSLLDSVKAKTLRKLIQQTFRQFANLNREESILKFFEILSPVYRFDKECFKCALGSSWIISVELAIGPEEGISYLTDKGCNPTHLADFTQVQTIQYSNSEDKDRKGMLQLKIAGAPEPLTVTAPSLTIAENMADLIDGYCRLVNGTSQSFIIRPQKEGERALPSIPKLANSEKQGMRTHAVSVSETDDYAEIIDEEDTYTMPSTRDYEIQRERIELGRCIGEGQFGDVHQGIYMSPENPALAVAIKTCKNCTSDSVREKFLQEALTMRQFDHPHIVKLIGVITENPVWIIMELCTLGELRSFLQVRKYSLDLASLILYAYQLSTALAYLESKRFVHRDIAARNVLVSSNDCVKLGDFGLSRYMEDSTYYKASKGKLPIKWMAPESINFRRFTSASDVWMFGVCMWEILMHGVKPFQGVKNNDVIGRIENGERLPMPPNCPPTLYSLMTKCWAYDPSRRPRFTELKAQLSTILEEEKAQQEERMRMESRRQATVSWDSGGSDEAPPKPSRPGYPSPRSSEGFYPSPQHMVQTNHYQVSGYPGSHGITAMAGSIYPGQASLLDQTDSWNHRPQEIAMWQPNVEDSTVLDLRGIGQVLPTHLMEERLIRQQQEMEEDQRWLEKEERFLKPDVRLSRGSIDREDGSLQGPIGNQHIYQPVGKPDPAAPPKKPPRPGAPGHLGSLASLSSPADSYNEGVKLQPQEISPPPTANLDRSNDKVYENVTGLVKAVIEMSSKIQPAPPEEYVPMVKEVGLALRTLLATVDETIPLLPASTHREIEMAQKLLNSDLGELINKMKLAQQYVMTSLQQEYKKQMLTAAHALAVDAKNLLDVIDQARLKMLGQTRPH
Endpoint name: IC50 (µM)
One number for each entry, in µM.

Input `COc1cc2c(Nc3ncc(CC(=O)Nc4cccc(F)c4)s3)ncnc2cc1OCCCN1CCC(CO)CC1` , output reported IC50.
4

Attribution: ChEMBL document CHEMBL1149372
